- system name: Fyn (UniProt P06241)
- Sequence (P06241 whole entry, looked up): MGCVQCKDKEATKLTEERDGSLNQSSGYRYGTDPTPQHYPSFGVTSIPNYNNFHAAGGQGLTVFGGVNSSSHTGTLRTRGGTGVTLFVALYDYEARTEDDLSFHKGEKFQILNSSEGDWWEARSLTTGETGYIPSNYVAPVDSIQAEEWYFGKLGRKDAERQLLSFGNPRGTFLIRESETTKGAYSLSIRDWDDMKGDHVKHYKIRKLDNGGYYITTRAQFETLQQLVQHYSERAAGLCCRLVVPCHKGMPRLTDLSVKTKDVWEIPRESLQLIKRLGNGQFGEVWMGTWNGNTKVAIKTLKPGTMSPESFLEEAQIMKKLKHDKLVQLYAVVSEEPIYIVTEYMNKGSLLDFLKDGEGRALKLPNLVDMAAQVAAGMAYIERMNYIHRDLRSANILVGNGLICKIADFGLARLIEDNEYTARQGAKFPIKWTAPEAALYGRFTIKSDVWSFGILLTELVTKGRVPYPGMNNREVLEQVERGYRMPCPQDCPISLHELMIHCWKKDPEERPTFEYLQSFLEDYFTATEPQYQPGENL
- method description: phosphorylation enrichment, bacterial display (enrichment ratio); higher = better substrate or ligand; peptides without Tyr show the background

{"columns": ["residues", "phosphorylation enrichment"],
 "data": [
  ["KANEFYPVVLI [ADAMTS18_Y765_YF]", 0.482],
  ["GGGMIYPLDLF", 0.6],
  ["SAEKAYHEQLS [TUBA1A_Y282]", 0.428],
  ["KMKGDYFCFLA [YWHAG_Y130_R132C_YF]", 2.13],
  ["FMMMRYSQNIR [SDAD1_Y656_V660I]", 0.513],
  ["MSNSAYVKREV [SCN1A_Y1694_F1692S]", 0.402],
  ["REETTYLPLTS [ICAM3_Y527_S525T]", 0.864],
  ["KYLENYYDLEK [MMP3_Y41_K45E]", 5.37],
  ["ELCSEYRKSRK [SPINK5_Y440]", 0.378],
  ["KDGNGYISVAE [CALM3_Y100_A103V]", 0.407],
  ["RVGNMYMRGLS [ABCG8_Y209_V210M]", 0.657],
  ["FEPWVYSLSFE [PRKDC_Y647_F649L_YF]", 7.08],
  ["RHPFFYAPELL [ALB_Y174_YF]", 1.32],
  ["QTPVLYAMLFH [MPZ_Y220_D224Y_YF]", 4.56]
]}

* * *

# phosphorylation enrichment per record follows
- system name: EPHB1 (UniProt P54762)
- Sequence (P54762 whole entry, looked up): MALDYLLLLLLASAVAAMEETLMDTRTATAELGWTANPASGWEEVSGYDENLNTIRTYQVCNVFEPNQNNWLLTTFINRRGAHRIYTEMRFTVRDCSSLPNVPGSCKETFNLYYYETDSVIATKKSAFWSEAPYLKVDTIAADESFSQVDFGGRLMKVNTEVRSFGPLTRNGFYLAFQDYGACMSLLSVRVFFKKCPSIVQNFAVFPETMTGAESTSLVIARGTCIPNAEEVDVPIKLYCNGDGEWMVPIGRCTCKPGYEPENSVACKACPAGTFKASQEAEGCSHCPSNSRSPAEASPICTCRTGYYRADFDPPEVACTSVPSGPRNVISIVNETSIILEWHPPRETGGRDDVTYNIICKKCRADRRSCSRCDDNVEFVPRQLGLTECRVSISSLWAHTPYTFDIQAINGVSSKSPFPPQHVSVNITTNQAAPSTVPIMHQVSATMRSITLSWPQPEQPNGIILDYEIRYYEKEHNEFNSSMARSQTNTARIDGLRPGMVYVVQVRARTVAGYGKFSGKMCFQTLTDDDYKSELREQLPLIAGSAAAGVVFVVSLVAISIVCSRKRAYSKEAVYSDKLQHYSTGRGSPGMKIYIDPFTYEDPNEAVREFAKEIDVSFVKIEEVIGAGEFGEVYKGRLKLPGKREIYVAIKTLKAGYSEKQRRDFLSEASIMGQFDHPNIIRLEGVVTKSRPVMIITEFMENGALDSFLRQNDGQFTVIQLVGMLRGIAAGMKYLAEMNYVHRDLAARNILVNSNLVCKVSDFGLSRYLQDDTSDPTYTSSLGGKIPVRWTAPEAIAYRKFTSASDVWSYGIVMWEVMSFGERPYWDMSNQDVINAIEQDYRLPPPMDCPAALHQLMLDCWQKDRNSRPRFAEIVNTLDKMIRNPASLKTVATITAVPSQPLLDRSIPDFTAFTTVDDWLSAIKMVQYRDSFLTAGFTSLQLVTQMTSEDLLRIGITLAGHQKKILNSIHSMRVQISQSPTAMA
- method description: phosphorylation enrichment, bacterial display (enrichment ratio); higher = better substrate or ligand; peptides without Tyr show the background
measurement name: phosphorylation enrichment

{"columns": ["residues", "measurement name", "test value"],
 "data": [
  ["SKNSKCNAEST [PSEN1_Y315_Y315C]", "phosphorylation enrichment", 0.48],
  ["FMMMRYSQNIR [SDAD1_Y656_V660I]", "phosphorylation enrichment", 0.77],
  ["HQNGMYRLHQD [SGSH_Y89_G90R]", "phosphorylation enrichment", 0.741],
  ["MEFLPYGSLRD [JAK2_Y934_YF]", "phosphorylation enrichment", 0.571],
  ["GDAMLYYPSVS [GPR143_Y177_A173D]", "phosphorylation enrichment", 0.763],
  ["ISDNACQYMLT [MYH7_Y162_Y162C]", "phosphorylation enrichment", 0.629],
  ["FSQQTYCRVSN [ABCD1_Y180_Y181C]", "phosphorylation enrichment", 3.39],
  ["QDRTYYERVRT [SPEN_Y633_S635R]", "phosphorylation enrichment", 0.732],
  ["QMQNPYSRHSS [MUC13_Y501]", "phosphorylation enrichment", 0.363],
  ["SCRENYSFSEE [LEMD3_Y258_D260Y_YF]", "phosphorylation enrichment", 0.709],
  ["RHFTGCRIELQ [INSR_Y818_Y818C]", "phosphorylation enrichment", 0.545],
  ["DDIPLYLKGGV [COX7A2_Y44_E40D]", "phosphorylation enrichment", 0.525],
  ["KVGPGYLGSGG [RET_Y826]", "phosphorylation enrichment", 0.287],
  ["PLDGEYFSLQI [TP53_Y327_T329S]", "phosphorylation enrichment", 1.15]
]}

* * *

# phosphorylation enrichment per record follows
- system name: Jak2 (UniProt O60674)
- Sequence (O60674 whole entry, looked up): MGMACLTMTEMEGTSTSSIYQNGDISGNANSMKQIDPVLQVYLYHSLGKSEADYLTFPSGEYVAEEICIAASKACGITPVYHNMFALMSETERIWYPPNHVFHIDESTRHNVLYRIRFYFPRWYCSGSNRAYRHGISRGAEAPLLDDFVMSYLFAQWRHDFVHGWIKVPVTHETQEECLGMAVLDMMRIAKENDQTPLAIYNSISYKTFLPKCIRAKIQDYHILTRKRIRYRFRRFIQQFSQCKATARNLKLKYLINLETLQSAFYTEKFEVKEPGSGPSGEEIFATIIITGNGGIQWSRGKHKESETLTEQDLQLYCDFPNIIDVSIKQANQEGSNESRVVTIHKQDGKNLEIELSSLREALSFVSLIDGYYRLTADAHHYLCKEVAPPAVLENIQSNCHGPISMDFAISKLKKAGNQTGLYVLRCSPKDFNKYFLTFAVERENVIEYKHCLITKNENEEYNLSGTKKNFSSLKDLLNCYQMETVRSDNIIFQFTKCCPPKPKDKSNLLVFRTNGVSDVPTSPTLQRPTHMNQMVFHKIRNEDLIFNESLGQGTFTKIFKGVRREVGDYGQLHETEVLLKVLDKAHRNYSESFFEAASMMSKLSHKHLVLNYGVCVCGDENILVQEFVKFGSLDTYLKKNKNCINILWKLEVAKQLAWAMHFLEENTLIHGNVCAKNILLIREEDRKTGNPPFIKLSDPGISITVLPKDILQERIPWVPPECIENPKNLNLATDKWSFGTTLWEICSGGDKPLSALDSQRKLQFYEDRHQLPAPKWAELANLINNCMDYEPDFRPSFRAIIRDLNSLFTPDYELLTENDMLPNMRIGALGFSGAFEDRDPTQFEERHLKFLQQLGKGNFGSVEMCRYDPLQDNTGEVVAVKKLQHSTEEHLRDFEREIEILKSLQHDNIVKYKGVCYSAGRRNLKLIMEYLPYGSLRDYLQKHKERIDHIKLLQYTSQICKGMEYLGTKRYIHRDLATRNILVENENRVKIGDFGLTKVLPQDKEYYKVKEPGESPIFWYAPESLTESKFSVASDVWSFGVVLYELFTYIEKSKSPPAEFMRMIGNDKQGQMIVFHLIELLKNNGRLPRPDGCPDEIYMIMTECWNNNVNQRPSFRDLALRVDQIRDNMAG
- method description: phosphorylation enrichment, bacterial display (enrichment ratio); higher = better substrate or ligand; peptides without Tyr show the background

{"columns": ["residues", "phosphorylation enrichment"],
 "data": [
  ["SIKDKYVMALF [KCNH2_Y611_T613M_YF]", 0.721],
  ["EADRKYEEVAG [TPM3_Y163_R168G]", 0.998],
  ["GEFHVYRHLRR [PRKRIP1_Y82]", 0.896],
  ["CTTLHYNYMCN [TP53_Y234_I232L]", 0.827],
  ["TPRNTYKMTSL [MKI67_Y849]", 0.477],
  ["ALRASYTPSPV [ESS2_Y418_A423V]", 0.909],
  ["SKKSTYQALLD [GANC_Y43]", 0.907],
  ["FARECYSALPQ [SARS2_Y52_G51C_YF]", 0.761],
  ["SEKVVYRRFTE [NCF1_Y41]", 0.61],
  ["KLLPEYPGILS [DHFR2_Y163_V166I]", 0.739],
  ["ANYTEYVATSW [CDKL5_Y171_R175S]", 0.897],
  ["ISKKIYDPIHD [CTNNA3_Y614_T616P]", 0.516],
  ["PAVGIYNGNIN [CDCP1_Y707_D709G]", 1.15],
  ["ADRARYSAFGG [RBM4_Y361]", 0.482],
  ["EPNSRYTYKLE [USH2A_Y3745]", 0.628],
  ["TLEKFYFAFPG [SLC1A1_Y51]", 3.54],
  ["QQLQGYIPSNY [FRK_Y99]", 0.647],
  ["ITVCDYTNPCP [MYD88_Y276_T281P]", 0.689],
  ["IVRSLYEDPED [VHL_Y185_L188P]", 0.878],
  ["RPGSGYTKIMR [PKLR_Y564_N566K]", 0.41],
  ["QRRLVYFERGA [RYR1_Y245_G248R_YF]", 0.811],
  ["SCRENYSFSEE [LEMD3_Y258_D260Y_YF]", 0.988],
  ["TLARLYHRDST [LRIG1_Y1029_P1031R]", 0.61],
  ["ERRLIYTSDPK [VPS13D_Y864]", 0.586]
]}

* * *

- system name: Jak2 (UniProt O60674)
- method description: phosphorylation enrichment, bacterial display (enrichment ratio); higher = better substrate or ligand; peptides without Tyr show the background
# phosphorylation enrichment per record follows
measurement name: phosphorylation enrichment

{"columns": ["residues", "measurement name", "test value"],
 "data": [
  ["CTTIHYNFMWN [TP53_Y234_C238W_YF]", "phosphorylation enrichment", 1.5],
  ["VIDGKYAFKPK [GTF2E2_Y137]", "phosphorylation enrichment", 0.421],
  ["WANPEYTGGFK", "phosphorylation enrichment", 0.734],
  ["TIMTDYNPNFC [ALK_Y1092_YF]", "phosphorylation enrichment", 0.795],
  ["YSIAQYCCRMG [LRRK2_Y2023_G2019S]", "phosphorylation enrichment", 0.574],
  ["RVGNMYMRGLS [ABCG8_Y209_V210M]", "phosphorylation enrichment", 0.663],
  ["EREFKYDAHNF [OAT_Y50_G51D_YF]", "phosphorylation enrichment", 0.914],
  ["KASVDYIRKLQ [MITF_Y360]", "phosphorylation enrichment", 0.589],
  ["FDGKDYIALNE [HLA-A_Y147_YF]", "phosphorylation enrichment", 0.898],
  ["YDYKKYGKGLR [ZNF445_Y433]", "phosphorylation enrichment", 0.444],
  ["IFLENYNAGTF [CFI_Y421_H418L_YF]", "phosphorylation enrichment", 0.844],
  ["KQELVYTNKKL [OPTN_Y356]", "phosphorylation enrichment", 0.791],
  ["TENAGYFFRVS", "phosphorylation enrichment", 1.45]
]}

* * *

- system name: EPHB2 (UniProt P29323)
- Sequence (P29323 whole entry, looked up): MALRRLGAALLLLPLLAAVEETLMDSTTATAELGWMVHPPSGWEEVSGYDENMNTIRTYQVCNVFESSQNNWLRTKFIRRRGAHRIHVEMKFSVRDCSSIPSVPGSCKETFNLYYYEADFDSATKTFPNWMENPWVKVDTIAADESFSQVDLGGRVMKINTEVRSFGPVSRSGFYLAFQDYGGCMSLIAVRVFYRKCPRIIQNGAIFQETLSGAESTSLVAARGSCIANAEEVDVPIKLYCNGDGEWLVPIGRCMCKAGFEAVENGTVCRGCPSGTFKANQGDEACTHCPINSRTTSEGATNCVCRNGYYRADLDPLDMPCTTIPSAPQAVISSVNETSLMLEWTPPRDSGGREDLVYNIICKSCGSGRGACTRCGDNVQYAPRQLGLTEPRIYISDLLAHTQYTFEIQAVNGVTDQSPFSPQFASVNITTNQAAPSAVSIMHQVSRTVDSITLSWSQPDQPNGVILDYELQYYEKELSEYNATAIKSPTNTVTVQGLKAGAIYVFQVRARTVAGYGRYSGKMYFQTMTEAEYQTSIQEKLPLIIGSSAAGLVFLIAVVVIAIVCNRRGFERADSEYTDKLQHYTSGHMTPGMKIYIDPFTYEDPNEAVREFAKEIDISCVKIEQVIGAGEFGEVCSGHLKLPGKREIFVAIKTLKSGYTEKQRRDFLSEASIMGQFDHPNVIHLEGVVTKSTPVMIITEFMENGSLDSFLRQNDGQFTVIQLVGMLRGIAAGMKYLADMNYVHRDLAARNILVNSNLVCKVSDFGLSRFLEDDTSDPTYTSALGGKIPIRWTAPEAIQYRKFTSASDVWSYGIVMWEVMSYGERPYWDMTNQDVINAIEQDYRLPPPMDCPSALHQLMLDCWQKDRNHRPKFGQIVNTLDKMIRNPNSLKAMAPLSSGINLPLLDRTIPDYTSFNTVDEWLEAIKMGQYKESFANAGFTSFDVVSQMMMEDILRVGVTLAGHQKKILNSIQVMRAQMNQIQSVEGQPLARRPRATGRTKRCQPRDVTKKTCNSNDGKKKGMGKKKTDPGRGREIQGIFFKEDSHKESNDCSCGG
- method description: phosphorylation enrichment, bacterial display (enrichment ratio); higher = better substrate or ligand; peptides without Tyr show the background
# phosphorylation enrichment per record follows

{"columns": ["residues", "phosphorylation enrichment"],
 "data": [
  ["LLVVLYKFRCF [PSEN1_Y154_Y159F_YF]", 0.773],
  ["PVPKTYDMLNA [PKP2_Y108_K112N]", 0.622],
  ["KASVDYIRKLQ [MITF_Y360]", 0.409],
  ["ATHSRYRLNDY [CLDN14_Y233_G232R]", 0.371],
  ["SSVKPYRVYCD [FGB_Y266]", 0.564],
  ["FEPWVYSLSFE [PRKDC_Y647_F649L_YF]", 1.26],
  ["SVTWTYSPALN [TP53_Y126_C124W]", 0.786],
  ["EHLNRYINDTF [TTLL10_Y446_S448N]", 0.608],
  ["QDRTYYERVRT [SPEN_Y633_S635R]", 0.767],
  ["APSHAYHGGVL [ANO1_Y981]", 0.336],
  ["GRRNTCYASIA [ACADM_Y352_Y352C]", 0.365]
]}

* * *

# SH2 binding enrichment per record follows
- system name: Grb2 SH2 (UniProt P62993)
- Sequence (P62993 whole entry, looked up): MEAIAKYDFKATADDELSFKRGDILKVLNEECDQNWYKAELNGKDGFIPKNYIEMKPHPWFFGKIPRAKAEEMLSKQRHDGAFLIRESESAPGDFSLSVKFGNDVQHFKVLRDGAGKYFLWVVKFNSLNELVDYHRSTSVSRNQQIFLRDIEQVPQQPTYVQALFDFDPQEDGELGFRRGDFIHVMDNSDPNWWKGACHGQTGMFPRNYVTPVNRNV
- method description: SH2 binding enrichment of the phosphorylated peptide, bacterial display (enrichment ratio); higher = better substrate or ligand; peptides without Tyr show the background
measurement name: SH2 binding enrichment

{"columns": ["residues", "measurement name", "test value"],
 "data": [
  ["GARGRYVMGGP [TNK1_Y277]", "SH2 binding enrichment", 0.512],
  ["MEFLPYGSLRD [JAK2_Y934_YF]", "SH2 binding enrichment", 0.798],
  ["AGIENYKSRFG [NKD2_Y256_T257K]", "SH2 binding enrichment", 0.784],
  ["LAARFYNWVSF [FLT4_Y1231_YF]", "SH2 binding enrichment", 1.26],
  ["QMQNPYSRHSS [MUC13_Y501]", "SH2 binding enrichment", 0.974],
  ["RICRRYCQVLN [IQCF1_Y144_R141C]", "SH2 binding enrichment", 0.537],
  ["PMQLPYDSTWE [PDGFRB_Y589]", "SH2 binding enrichment", 0.673],
  ["FADIAYNFRDG [PAH_Y166_H170D_YF]", "SH2 binding enrichment", 0.953],
  ["GGRIDYIAGLV [APRT_Y60_D65V]", "SH2 binding enrichment", 0.692],
  ["LSEEKYELKEG [TREM1_Y29_T25S]", "SH2 binding enrichment", 0.713],
  ["ATARPYRPFII [LRP5_Y1528_YF]", "SH2 binding enrichment", 1.11]
]}

Recorded values, source the supplement of paper PMC10065799.
